Can you tell me Relative animal weights for the items I'm about to list?
Format: in vivo, hairless mice
Conditions: Day 20; 11 μmol of epothilone/kg of body weight i.v. (formulations: plus 100 μmol of Gd/kg); day 0 (about 30-35 g) normalized to 1

Value of measured Relative animal weights for the entry C#CCC[C@H]1C(=O)C(C)(C)[C@@H](O)CC(=O)O[C@H](/C(C)=C/c2ccccn2)C/C=C(/C)CCC[C@H](C)[C@@H]1O [Epothilone I] : 0.98

Value of measured Relative animal weights for the entry C=CC[C@H]1C(=O)C(C)(C)[C@@H](O)CC(=O)O[C@H](c2ccc3sc(C)nc3c2)C[C@@H]2O[C@]2(C)CCC[C@H](C)[C@@H]1O [Epothilone F] : 0.96

Value of measured Relative animal weights for the entry CC[C@H]1C(=O)C(C)(C)[C@@H](O)CC(=O)O[C@H](/C(F)=C/c2ccccn2)C/C=C(/C)CCC[C@H](C)[C@@H]1O [Epothilone G] : 0.96

Value of measured Relative animal weights for the entry C#CC[C@H]1C(=O)C(C)(C)[C@@H](O)CC(=O)O[C@H](/C(F)=C/c2coc(C)n2)C/C=C(/C)CCC[C@H](C)[C@@H]1O [Epothilone N] : 0.96

Value of measured Relative animal weights for the entry C#CC[C@H]1C(=O)C(C)(C)[C@@H](O)CC(=O)O[C@H](/C(F)=C/c2csc(C)n2)C/C=C(/C)CCC[C@H](C)[C@@H]1O [Epothilone L] : 0.98

Reference source: patent US20060257322A1
